All values here come from ChEMBL document CHEMBL1201862.

Test system: SNB-19
measurement.notes: NCI tumour cell line growth inhibition, 48 h
Calls of active or inactive are those of the source. Cut-off read from the data, not from the text of the source: active = GI50 up to about 1.1 µM and inactive = higher.
Outcome codes: active, inactive

- compound: "CC/C(CC(=O)CCC(=O)Nc1c(C)cccc1C)=N\\NC(=O)NN"
  assigned.category: "inactive"
- compound: "COc1cc2c(cc1OC)[C@@H](Nc1ccc(F)cc1)C1COC(=O)[C@@H]1C2c1cc(OC)c(O)c(OC)c1 (stereo partly specified)"
  assigned.category: "active"
- compound: "CC12CCC(C(Br)(Br)C1=O)C2(C)C (stereo unspecified)"
  assigned.category: "inactive"
- compound: "COc1ccccc1/C=C/C1=NN(c2cccc(S(=O)(=O)O)c2)C2(C1)SCC(=O)N2c1nc2ccccc2s1 (stereo unspecified)"
  assigned.category: "inactive"
- compound: "CC1=C[C@H]2C[C@@]3(C)O[C@@H]([C@]4(C)CC[C@H]([C@@H](C)C(=O)O)OO4)CC3C(C)(C)[C@H]2CC1 (stereo partly specified)"
  assigned.category: "inactive"
- compound: "CCNC(=O)/C=C/CCC#Cc1ccc(-c2ccc(-c3cccs3)s2)s1"
  assigned.category: "inactive"
- compound: "COC(=O)c1ccccc1NC(=O)C(=O)CC(=O)c1ccccc1NC1=CC(=O)C(=O)c2ccccc21"
  assigned.category: "inactive"
- compound: "CCOC(=O)CCc1c(C)c2c(OC(C)=O)cc(OC(C)=O)cc2oc1=O"
  assigned.category: "inactive"
- compound: "CC(=O)Nc1cc(C(=O)Nc2cc(C(=O)N3CC(CCl)c4c3cc(N)c3ccccc43)nn2C)nn1C (stereo unspecified)"
  assigned.category: "active"
- compound: "O=S(=O)(SC1=NCCN1)c1ccc2ccccc2c1"
  assigned.category: "inactive"
- compound: "CC1=C(C(=O)Nc2ccc([N+](=O)[O-])cc2)C(c2ccco2)C(C(=O)Nc2ccc([N+](=O)[O-])cc2)=C(C)N1"
  assigned.category: "inactive"
- compound: "COc1cc(S(=O)(=O)Nc2ccc(-c3csc(N)n3)cc2)ccc1Cl"
  assigned.category: "inactive"
- compound: "CO[C@H]1[C@@H](O)[C@@H](C)O[C@@H](O[C@H]2CC[C@@]3(C)[C@H](CC[C@@H]4[C@@H]3CC[C@]3(C)[C@@H](C5=CC(=O)OC5)[C@@H](OC(C)=O)C[C@]43O)C2)[C@@H]1O [NERITALOSIDE]"
  assigned.category: "active"
- compound: "COc1ccc(/C=C(\\Cl)c2ccc(OC)cc2)cc1"
  assigned.category: "inactive"
- compound: "COC1C(O)CC(OC2CC(Oc3cc4cc5c(c(O)c4c(O)c3C)C(=O)[C@@H](OC3CC(OC4CC(OC6CC(C)(O)C(OC(C)=O)C(C)O6)C(O)C(C)O4)C(O)C(C)O3)[C@H]([C@H](OC)C(=O)[C@@H](O)[C@@H](C)O)C5)OC(C)C2OC(C)=O)OC1C (stereo partly specified) [CHROMOMYCIN]"
  assigned.category: "active"
- compound: "CC(=O)c1ccc(Nc2c3c(nc4ccccc24)CCCC3)cc1"
  assigned.category: "inactive"
- compound: "COc1ccc(C2NCCc3c2[nH]c2ccccc32)cc1 (stereo unspecified)"
  assigned.category: "inactive"
- compound: "CC(C)C1CC[C@H](C)C[C@@H]1OC(=O)C(C(=O)O[C@H]1C[C@@H](C)CCC1C(C)C)C(O)[C@@H]1OC(C)(C)O[C@H]1C1COC(C)(C)O1 (stereo partly specified)"
  assigned.category: "inactive"
- compound: "Cc1ccc(C)c(N2C(=O)C(=O)C(c3nc4ccccc4o3)C(=O)C2=O)c1"
  assigned.category: "inactive"
- compound: "O=C(COc1ccc(Cl)cc1)N1N=C(c2ccc(Cl)cc2)CC1(O)c1ccccc1 (stereo unspecified)"
  assigned.category: "inactive"
- compound: "CCN(CC)C(=S)SNc1ccc(S(N)(=O)=O)cc1"
  assigned.category: "inactive"
- compound: "CC1=NN(C(=O)c2cc(Cl)cc([N+](=O)[O-])c2)C(=O)C1/N=N/c1ccccc1C(=O)O (stereo unspecified)"
  assigned.category: "inactive"
- compound: "CCOC(=O)/C(C#N)=N\\Nc1ccc(-n2c(C)nc3ccccc3c2=O)cc1"
  assigned.category: "inactive"
- compound: "Cc1ccc(S(=O)(=O)n2c3c(c4ccccc42)CCN2CCC(Br)C[C@@H]32)cc1 (stereo partly specified)"
  assigned.category: "inactive"
- compound: "CCn1c(=O)c2c(=O)[nH][nH]c2c2ccccc21"
  assigned.category: "inactive"
- compound: "CC1=CC(=O)/C(=C/NC(=S)c2ccccc2)C(=O)O1"
  assigned.category: "inactive"
- compound: "C=C(C)C12OC3(c4ccccc4)OC1C1C4OC4(CO)C(O)C4(O)C(=O)C(C)=CC4C1(O3)C(C)C2OC(=O)/C=C/C=C/c1ccccc1 (stereo unspecified)"
  assigned.category: "active"
- compound: "CC(=O)NNc1nc(-c2ccc([N+](=O)[O-])cc2)c(C#N)c(=O)n1C"
  assigned.category: "inactive"
- compound: "CC1=CC(=O)CCC2(C)C1CC[C@@H]2OC=O (stereo partly specified)"
  assigned.category: "inactive"
- compound: "CC1CC2CCCC(=O)C2=C(O)O1 (stereo unspecified)"
  assigned.category: "inactive"
- compound: "CNC(=O)OC1/C(C)=C\\C(C)C(O)C(OC)CC(C)CC2=C(OC)C(=O)C=C(C2=O)N(C)C(=O)/C(C)=C/C=C\\C1OC (stereo unspecified)"
  assigned.category: "inactive"
- compound: "O=C(O)CCC(NC(=O)c1ccc(OCc2nc3cc(C(F)(F)F)ccc3nc2-c2ccccc2)cc1)C(=O)O (stereo unspecified)"
  assigned.category: "inactive"
- compound: "CSc1nc2c(nc(N)n2C2OC(CO)C(O)C(O)C2O)c(=O)n1C (stereo unspecified)"
  assigned.category: "inactive"
- compound: "N#CC1=C(Nc2ccccc2)SC=C(c2ccccc2)N=C1NCc1ccccc1"
  assigned.category: "inactive"
- compound: "N/C(=N\\c1ccc(Cl)cc1)NS(=O)(=O)c1ccc(-c2ncccc2C(F)(F)F)s1"
  assigned.category: "inactive"
- compound: "COC(=N)CCCl"
  assigned.category: "inactive"

---

Overview of reported GI50 across a group of molecules:
Tested on: BT-549
measurement.notes: NCI tumour cell line growth inhibition, 48 h
Active and inactive are the calls of the source. Cut-off read from the data, not from the text of the source: active = GI50 up to about 1.1 µM and inactive = higher.
quantity.measured: GI50

- molecule: "C/C(CC(O)(C(F)(F)Cl)C(F)(F)Cl)=N\\Nc1ccccc1"
  assayed.target: "BT-549"
  test.value: "33.6 µM (inactive)"
- molecule: "CNC(=O)OC1/C(C)=C\\C(C)C(O)C(OC)CC(C)CC2=C(OC)C(=O)C=C(C2=O)N(C)C(=O)/C(C)=C/C=C\\C1OC (stereo not given)"
  assayed.target: "BT-549"
  test.value: "5 µM (inactive)"
- molecule: "CO/C(N)=C(C#N)/N=C/c1ccco1"
  assayed.target: "BT-549"
  test.value: "> 100 µM (inactive)"
- molecule: "Nc1ccc(S(=O)(=O)NCCS(=O)(=O)O)cc1"
  assayed.target: "BT-549"
  test.value: "> 100 µM (inactive)"
- molecule: "Cc1oc2c(c1C)S(=O)(=O)C(C#N)C(c1ccccc1)N2 (stereo not given)"
  assayed.target: "BT-549"
  test.value: "45.4 µM (inactive)"
- molecule: "CNC(=O)CN(C)C(=O)CCC(=O)N(C)C"
  assayed.target: "BT-549"
  test.value: "> 100 µM (inactive)"
- molecule: "CC(C)C1CC[C@H](C)C[C@@H]1OC(=O)C(C(=O)O[C@H]1C[C@@H](C)CCC1C(C)C)C(O)[C@@H]1OC(C)(C)O[C@H]1C1COC(C)(C)O1 (stereo not given in full)"
  assayed.target: "BT-549"
  test.value: "19 µM (inactive)"
- molecule: "C[n+]1c2ccccc2c(C(=O)NC(CCCNC(=N)N)C(=O)O)c2ccccc21 (stereo not given)"
  assayed.target: "BT-549"
  test.value: "> 100 µM (inactive)"
- molecule: "O=C(O)c1ccc(NC(c2ccccc2)c2ccc3cccnc3c2O)cc1 (stereo not given)"
  assayed.target: "BT-549"
  test.value: "10 µM (inactive)"
- molecule: "CCOC(=O)C(O)(NC(=O)c1ccc(F)cc1)C(F)(F)F (stereo not given)"
  assayed.target: "BT-549"
  test.value: "> 100 µM (inactive)"

---

Test system: HCC 2998
measurement.notes: NCI tumour cell line growth inhibition, 48 h
Activity calls are given as the source filed them. No stated cut-off is given here; in the data, active = GI50 up to about 1.1 µM and inactive = higher.
Outcome codes: active, inactive

- compound: "O=C1CSC2=NC3=C(COC/C3=C\\c3ccc(Br)cc3)C(c3ccc(Br)cc3)N12 (stereo not given)"
  assigned.category: "inactive"
- compound: "CCSc1cc(=O)n(C)c(=O)n1C"
  assigned.category: "inactive"
- compound: "CC1OC(OC2C(OC(=O)[C@]34CCC(C)(C)CC3C3=CCC5[C@@]6(C)C[C@H](O)[C@H](OC7OC(CO)C(O)C(O)C7N)[C@@](C)(C(=O)O)C6CC[C@@]5(C)C3(C)CC4)OCC(O)C2O)C(O)C(O)C1OC1OCC(O)C(O)C1O (stereo not given in full)"
  assigned.category: "inactive"
- compound: "[N-]=[N+]=C(C(=O)CN1CCCC1=O)S(=O)(=O)c1ccccc1"
  assigned.category: "inactive"
- compound: "N#C/C(=C\\Nc1ccccn1)C(=O)c1ccco1"
  assigned.category: "inactive"
- compound: "O=C(O)C1CCCN1C(=O)c1cc(Cl)ccn1 (stereo not given)"
  assigned.category: "inactive"
- compound: "C[C@]12CC[C@@H]3c4ccc(O)cc4CC[C@H]3[C@@H]1C/C(=C\\c1ccncc1)[C@@H]2O"
  assigned.category: "inactive"
- compound: "CC(C(=O)Oc1ccc2ccccc2c1-c1c(O)ccc2ccccc12)c1ccccc1 (stereo not given)"
  assigned.category: "inactive"
- compound: "CCOC(=O)/C(O)=C/c1cc(OC)cc(=O)o1"
  assigned.category: "inactive"
- compound: "Cc1c(C)c(C)c(Cn2[nH]c(=O)n(C)c2=O)c(C)c1C"
  assigned.category: "inactive"
- compound: "CCc1cc2c(cc1CCCC(=O)O)CC1(Cc3ccc(C(=O)O)cc3C1)C2 (stereo not given)"
  assigned.category: "inactive"
- compound: "COC(=O)C(C(=O)C(=O)Nc1ccccc1C#N)c1nc2ccc([N+](=O)[O-])cc2nc1O (stereo not given)"
  assigned.category: "inactive"
- compound: "COc1cc(OC)cc(C(=O)Cc2c(C(=O)c3ccccc3)c3ccccc3n2C(=O)c2ccccc2)c1"
  assigned.category: "inactive"
- compound: "Cc1cccc2cc3ccc4ccccc4c3cc12"
  assigned.category: "inactive"
- compound: "NC1=NC(=O)C2(NN1)c1ccccc1-c1ccccc12"
  assigned.category: "inactive"
- compound: "Cc1ccc(NC(=O)CSc2nc(C)nc3c2sc(=S)n3-c2ccccc2)cc1"
  assigned.category: "inactive"
- compound: "CCOC(=O)CCc1c(C)c2c(OC(C)=O)cc(OC(C)=O)cc2oc1=O"
  assigned.category: "inactive"
- compound: "CC(C(=O)c1ccc(Cl)cc1)/C(=N/NC(=O)NN)C(=O)Nc1cccc(C(F)(F)F)c1 (stereo not given)"
  assigned.category: "inactive"
- compound: "COC(=O)c1ccccc1NC(=O)C(=O)CC(=O)c1ccccc1NC1=CC(=O)C(=O)c2ccccc21"
  assigned.category: "inactive"
- compound: "O=C1N/C(=N/N=C\\c2ccccc2)N/C1=C/c1ccccc1"
  assigned.category: "inactive"
- compound: "O=C(O)c1nn(-c2ccccc2-c2nnc(O)nc2O)c(=O)[nH]c1=O"
  assigned.category: "inactive"
- compound: "O=C(O)C1=NN(c2ccc(S(=O)(=O)O)cc2)C2(C1)C(Cl)C(=O)N2c1nc2ccccc2s1 (stereo not given)"
  assigned.category: "inactive"
- compound: "CCOC(=O)C(=O)N1C(C)=C(C(=O)OCC)CC(C(=O)OCC)=C1C"
  assigned.category: "inactive"
- compound: "C[S+](C)CC(=O)c1ccc2c(c1)Sc1ccccc1O2"
  assigned.category: "inactive"
- compound: "COc1ccc2c(c1)c(=O)c1c(NCCCN(C)C)ccc3ncn2c31"
  assigned.category: "inactive"
- compound: "COC(=O)C1Cc2cc3c(cc2C1=O)CCCC3 (stereo not given)"
  assigned.category: "inactive"
- compound: "CCOC(=O)NC(Nc1ccc(F)cc1F)(C(F)(F)F)C(F)(F)F"
  assigned.category: "inactive"
- compound: "CCNC1=C(NC(=O)c2ccc(F)cc2)C(=O)c2ccccc2C1=O"
  assigned.category: "inactive"
- compound: "COc1cc(C(C)O)c(S(=O)(=O)CC(C)O)nn1 (stereo not given)"
  assigned.category: "inactive"
- compound: "COc1ccc2cc(CNCCCCCCCCNCc3ccc4cc(OC)ccc4c3)ccc2c1"
  assigned.category: "inactive"
- compound: "O=C(O)c1cc(=O)c2c([nH]c3ccccc32)s1"
  assigned.category: "inactive"
- compound: "COC1C(O)CC(OC2CC(Oc3cc4cc5c(c(O)c4c(O)c3C)C(=O)[C@@H](OC3CC(OC4CC(OC6CC(C)(O)C(OC(C)=O)C(C)O6)C(O)C(C)O4)C(O)C(C)O3)[C@H]([C@H](OC)C(=O)[C@@H](O)[C@@H](C)O)C5)OC(C)C2OC(C)=O)OC1C (stereo not given in full)"
  assigned.category: "active"
- compound: "CC(/C=N/N=C(N)N)=N\\N=C(N)N"
  assigned.category: "inactive"
- compound: "COc1ccc(CCCN2c3ccccc3Sc3ccccc32)cc1"
  assigned.category: "inactive"
- compound: "OC(c1cc(-c2ccccc2)nc2c1ccc1ccccc12)C1CCCCN1 (stereo not given)"
  assigned.category: "active"
- compound: "O=C1C(Cl)C(c2cccc(Cl)c2)N1c1ccc(-n2c(S)nc3ccccc3c2=O)cc1 (stereo not given)"
  assigned.category: "inactive"
- compound: "C1CSCCSCCSCCSCCS1"
  assigned.category: "inactive"
- compound: "NS(=O)(=O)c1ccc(NC(=O)COC(=O)c2cccc3c(=O)c4ccccc4[nH]c23)cc1"
  assigned.category: "inactive"
- compound: "CCOC(=O)OC1(c2ccccc2)CCN(C)CC1"
  assigned.category: "inactive"
- compound: "O=c1ccc(=O)n(-c2ccccc2)[nH]1"
  assigned.category: "inactive"
